# PROCEDURE TEXT: Intrinsic clearance in human liver microsomes at 1 uM after 30 mins
# Assay type: ADME, Microsome
# TEST CONDITIONS: read-out: CLH
READOUT LABEL: microsomal CLint at 1 µM (µL/min/mg)
Numbers only, in µL/min/mg.

Go through the list and state microsomal CLint at 1 µM for each entry.
1. CC(=O)N[C@@H](Cc1ccc(F)c(C#N)c1)[C@H](O)CN[C@H]1CC2(CCC2)Oc2ncc(CC(C)(C)C)cc21
2. CC(=O)N[C@@H](Cc1ccc(OC(F)(F)F)cc1)[C@H](O)CN[C@H]1CC2(CCC2)Oc2ncc(CC(C)(C)C)cc21
3. CC(=O)N[C@@H](Cc1ccc(Cl)cc1)[C@H](O)CN[C@H]1CC2(CCC2)Oc2ncc(CC(C)(C)C)cc21
4. CC(=O)N[C@@H](Cc1ccc(C(F)(F)F)c(F)c1)[C@H](O)CN[C@H]1CC2(CCC2)Oc2ncc(CC(C)(C)C)cc21 (mixture of isomers)

Result string:
1: 188; 2: 181; 3: 443; 4: 443

Go through the list and state microsomal CLint at 1 µM for each entry.
1. CC(=O)N[C@@H](Cc1ccc(F)c(OC(F)(F)F)c1)[C@H](O)CN[C@H]1CC2(CCC2)Oc2ncc(CC(C)(C)C)cc21
2. COc1cc(C[C@H](NC(C)=O)[C@H](O)CN[C@H]2CC3(CCC3)Oc3ncc(CC(C)(C)C)cc32)ccc1F
3. CC(=O)N[C@@H](Cc1ccc(F)c(C)c1)[C@H](O)CN[C@H]1CC2(CCC2)Oc2ncc(CC(C)(C)C)cc21

Result string:
1: 360; 2: 628; 3: 829
